Data origin, for the record: the supplement of paper PMC8728848

Each entry below carries its reported glycan array binding signal (z-score).
# testedOn: Fuc(a1-2)Gal(b1-4)[Fuc(a1-3)]GlcNAc(b1-3)Gal(b1-4)[Fuc(a1-3)]GlcNAc
# assayDetails: glycan array binding signal (z-score within array); higher = stronger binding
# experimentalSetup: glycan notation: IUPAC condensed, linker removed
The sample as a whole holds a higher share of the strongest signals than the screen did.
Form: value (number only, do not type unit).

Below, each entry is followed by its recorded glycan array binding signal (z-score) result.
[
  {
    "binder": "PfulAvr4 2 (Pseudocercospora fuligena) (protein) HHHHHHDYKDDDDKAKPIKPFACPPKDFTTTKCQGPVDCLYANPLSCLGYIQCVCDDDACSTATPYAKSCPTGLAWVEKLKRCDGIKKSACPKKMYEGS",
    "experimentalResult": -0.355
  },
  {
    "binder": "FedF (Escherichia coli), Q47212 (protein) MRLKYILIIPLLLISLSVFASTLQVDKSVSYDWINSSASSAQVTGTLLGTGKTNTTQMPALYTWQHQIYNVNFIPSSSGTLTCQAGTILVWKNGRETQYALECRVSIHHSSGSINESQWGQQSQVGFGTACGNKKCRFTGFEISLRIPPNAQTYPLSSGDLKGSFSLTNKEVNWSASIYVPAIAKSYRLDTSITLPDTVNLKQNQATPVYYTFSAPSVSNTITGIPNQNDMPSSNVKLTIGPIQSKTTALYVQPDATGSWYDLSKSITMTVVKSSMLNFKGINAKPGNVTLSVPIVFEIQ",
    "experimentalResult": -0.053
  },
  {
    "binder": "AFL (Aspergillus fumigatus), Q4WW81 (protein) STPGAQQVLFRTGIAAVNLTNHLRVYFQDVYGSIRESLYEGSWANGTEKNVIGNAKLGSPVAATSKELKHIRVYTLTEGNTLQEFAYDSGTGWYNGGLGGAKFQVAPYSRIAAVFLAGTDALQLRIYAQKPDNTIQEYMWNGDGWKEGTNLGGALPGTGIGATSFRYTDYNGPSIRIWFQTDDLKLVQRAYDPHKGWYPDLVTIFDRAPPRTAIAATSFGAGNSSIYMRIYFVNSDNTIWQVCWDHGKGYHDKGTITPVIQGSEVAIISWGSFANNGPDLRLYFQNGTYISAVSEWVWNRAHGSQLGRSALPPA",
    "experimentalResult": 3.88
  },
  {
    "binder": "LecB PA7 (Pseudomonas aeruginosa) (protein) MATQGVFTLPANTRFGVTAFANSSATQTVKVLVNNETAATFTGQSTNNAVIGSQVLNSGGGGKVQIQVSVNGRSSDLVSAQVILANELNVALVGSEDSTDNDYNDAVVVINWPLG",
    "experimentalResult": 4.93
  },
  {
    "binder": "LecB LY19 (Pseudomonas aeruginosa) (protein) MATQGVFTLPANTQFGVTAFANSAGTQTVNVQVNNETVATFTGQSTNNGIIGSKVLNSGGGGKVQILVSVNGRSSDLVSAQVILANELNFALVGSEDSTDNDYNDAVVVINWPLG",
    "experimentalResult": 5.07
  },
  {
    "binder": "LecB PA14 (Pseudomonas aeruginosa) (protein) MATQGVFTLPANTQFGVTAFANSAGTQTVNVQVNNETVATFTGQSTNNAIIGSKVLNSGGGGKVQILVSVNGRSSDLVSAQVILANELNFALVGSEDSTDNDYNDAVVVINWPLG",
    "experimentalResult": 10.2
  },
  {
    "binder": "cupB6 (Pseudomonas aeruginosa), Q02SP7 (protein) MSMRLFPGRVSLRRRPGAQARQALVLGLCCLTGGQAWALNEVALNCSFGNGKGLPWRVVNELTSGTAKGTVLFARPVSLFLSYKPQASQEAHELVLGGNWSGVGYPGPYGTVASDVKGIGYRISVDAQDGVKRVIPVDNQPHALDKRVTSFSGSTTSDYLQELVLTVDPGELPAGDLKVTSVSGSATLNLWAVDRLKGEASIGSVLAVPADNYPTGVCRKPYSLIGPASIAIGGGPPPPPIPKKCKVEVGREINVKLGSVALKNFPRVNDTSTERSFDISLSECAALAKPEIAFRDKYVSAQQADPTILSLKSGGAAGFGIVVKNGLDQQRIRFDGTPYPMRRVGDSADLPLSAAYIRIGAEGELKAGVADGAAEFTFTFP",
    "experimentalResult": 0.023
  }
]

Now for another entry.
Query block: Dear colleague, I am looking for the recorded glycan array binding signal (z-score) of the following binder: PLU (Photorhabdus luminiscence) (protein) HHHHHHENLYFQSSIVFASIDPRSNPLQTSSQNYVDIPGLKLDVSKYSNSPCLTALITLNIPTPYASGNNFPGGNFAIVTDQGEQLAYGGFTYSSKIPENSGRMPFTLVARYSLASNVSTIKAQWSNIRGSTVHIDSYASISAVIQCNQLV
Result block: 3.58
